Listing: TGI of selected compounds
Tested on: SNB-19 CNS
TEST SUMMARY: NCI tumour cell line growth inhibition, 48 h
Where a SMILES comes first, the peptide text is derived from it. [ ]: non-standard residue; d: D form. The star is where a group is joined. Bn2Val = CC(C)[C@@H](C(=O)*)N(Cc1ccccc1)Cc1ccccc1; NH(3,4-diMeO-benzyl) = COc1ccc(CN*)cc1OC; NMeV = CN[C@H](C(=O)O)C(C)C

The cases that follow already have their TGI on record.
Cn1c(=O)n2n(c1=O)[C@@H](c1ccccc1)[C@H]2c1ccccc1
> 100 µM
CC[C@H]1C=CCC[C@@]2(C[C@@H]3CC[C@H]4[C@H](C(=O)OCCCCCCCCCCCCCCCC(=O)N(CCCN)C[C@@H](O)CCN)[C@]5(CCC[C@@H](C)O5)NC(=[N+]34)N2)O1
2.93 µM
CCOC(=O)c1c(CN2CCCC2)n(-c2ccccc2)c2cc(Br)c(OC)cc12
> 100 µM
O=S(O)c1cc(Cl)cc(Cl)c1OCc1ccccc1
> 100 µM
COc1ccc(CNC(=O)[C@@H]2CCCN2C(=O)[C@@H]2CCCN2C(=O)[C@H](C(C)C)N(C)C(=O)[C@@H](NC(=O)[C@H](C(C)C)N(Cc2ccccc2)Cc2ccccc2)C(C)C)cc1OC (Bn2Val-V[NMeV]PP-{NH(3,4-diMeO-benzyl)})
30.7 µM

Now look at this entry.
[in] So what TGI did Cn1c(=O)c2c(nc3n(C)c(=O)c4ccccc4n23)n(C)c1=O get with SNB-19 CNS?
[out] > 100 µM

Data provenance: PubChem BioAssay (NCI)
